Values compiled from the supplement of paper PMC10126150.

System: ATP;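 note: ATP exposure 15 min at 22 °C before imaging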
Experiment: switch fluorescence ratio, 500 uM ATP over buffer (Cy3 cluster intensity, sum of 5 cycles each) (fold (ratio)); higher = stronger signal-on switching upon ATP binding; sequences stand for … in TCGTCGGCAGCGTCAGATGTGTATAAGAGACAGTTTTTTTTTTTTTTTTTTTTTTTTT…TC
Conditions: aptamer strand: ATP DNA aptamer (quencher-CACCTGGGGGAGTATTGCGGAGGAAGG + anchor), 100 nM annealed; ATP concentration: 500 uM
Each record here notes measured switch fluorescence ratio.
QUANTITY: switch fluorescence ratio

1. TGGGATGGGG | 1.01
2. GCAAACGTTA | 1.07
3. TACGGGAGGG | 1.07
4. TCCTACTGTA | 1.2
5. GGTTGACGGG | 0.985
6. CACGGAAGCA | 1.07
7. GAAATGCTCT | 1.01
8. TAAGGTGGGG | 0.987
9. GTTAGGAGTC | 0.992
10. TTTGATTGAG | 0.953
11. GTTAGGTGTG | 1.11
12. ATCGGATTTT | 1.17
13. AGTATAGGGC | 0.989
14. AGGGCGGGTG | 1.05
15. GCAGTAGCAA | 1.08
16. GTGGGAGGGT | 0.984
17. TGCGGCGCTT | 1.97
18. ATGGGGGATC | 1.01
19. GCGTGAAGTA | 0.997
20. CTGTTTGGGT | 0.976
